test system: RPMI-8226; experiment: NCI tumour cell line growth inhibition, 48 h
Active and inactive are the calls of the source. Cut-off read from the data, not from the text of the source: active = GI50 up to about 1.1 µM and inactive = higher.
measurement-type: GI50

Consider the worked cases shown below.
CCCn1c(SC)nc(COC(=O)NC)c1COC(=O)NC	> 100 µM (inactive)
O=C(O)c1ccccc1CN1CCCC(C(=O)O)C1 (stereo unspecified)	> 100 µM (inactive)
N#Cc1c(Cl)c2ccccc2n2c1nc1ccccc12	31.3 µM (inactive)

**Query** Can you look up the measured GI50 of CC(N)Cc1cccc(C(F)(F)F)c1 (stereo unspecified) for me?
**Result** > 100 µM (inactive)

**Query** Which GI50 reading was recorded for the molecule `CN1CCN(c2nc(N)c(Br)c(Cl)n2)CC1` ?
**Result** > 100 µM (inactive)

**Query** Give its GI50 value. Item: COC(=O)CCC(C)[C@H]1CCC2C3CC[C@@H]4CC5(CC[C@]4(C)C3C[C@H](OC(C)=O)[C@@]21C)OOC1(CCCCC1)OO5 (stereo partly specified)
**Result** 1.94 µM (inactive)

----------
test system: M19-MEL; experiment: NCI tumour cell line growth inhibition, 48 h
The source made the active and inactive calls. Cut-off read from the data, not from the text of the source: active = GI50 up to about 1.1 µM and inactive = higher.
Entry note: the call must match one of active, inactive

Nc1ccn(CCO)c(=O)n1	inactive
NC1CCCCC1.O=C(O)C(CP(=O)(O)O)=C(Cl)Cl	inactive
C/C(=N\NC(N)=S)c1ccc(C)cc1C	inactive
COC1[C@H](NC(=O)OC(C)(C)C)C(=O)N1Cc1ccccc1 (stereo partly drawn)	inactive
C=C(C)C(O)CCC1(C)C=Cc2c(c(C)cc3c2[nH]c2ccccc23)O1 (stereo not drawn)	inactive

**Query** Call for entry Oc1c(C(Nc2cccc3cccnc23)c2ccccc2)ccc2cccnc12 (stereo not drawn) :
**Result** inactive

**Query** Status in this test for O=C1C(Cl)C(c2cccc([N+](=O)[O-])c2)N1n1cnc2ccccc2c1=O (stereo not drawn) ?
**Result** inactive

**Query** Test call, this molecule: `CC#COP(=O)(OCC)OCC`
**Result** inactive

**Query** Given CC(N)Cc1cccc(C(F)(F)F)c1 (stereo not drawn) , state the outcome it received in this test.
**Result** inactive

**Query** Check the results log: what was the call for `Cc1nc2cc(N)c(F)cc2[nH]1` ?
**Result** inactive

**Query** What was the test verdict on COC(=O)C(NC(=O)c1ccccc1)C(c1c(O)cc(O)cc1O)P(=O)(OC)OC (stereo not drawn) ?
**Result** inactive

----------
tested on: SN12C; test: NCI tumour cell line growth inhibition, 48 h
Active and inactive are the calls of the source. Rule as the data show it: active = GI50 up to about 1.1 µM and inactive = higher.
One label from this list, please: active, inactive

O=C1NC(N2CCOCC2)=N/C1=C\c1cccs1	inactive

**Query** Query: recorded result category for `N#C/C(=C/NC(N)=S)C(N)=O` in this test
**Result** inactive

**Query** Dear all, I need the recorded test outcome for `Cc1cnoc1NS(=O)(=O)c1ccc(Nc2nnc(/C=C/c3c(O)ccc4ccccc34)c(=O)n2N)cc1` , thank you.
**Result** inactive

**Query** Per the records of this test, what outcome belongs to `O=C1C/C(Br)=C\c2ccccc2-c2ccccc21` ?
**Result** inactive

**Query** Query: recorded result category for O=C(O)c1ccccc1C1CCCc2c1[nH]c1ccccc21 (stereo not drawn) in this test
**Result** inactive

----------
test system: K562; assay: NCI tumour cell line growth inhibition, 48 h
Calls of active or inactive are those of the source. No stated cut-off is given here; in the data, active = GI50 up to about 1.1 µM and inactive = higher.
Choose the fitting class; nothing outside Yes (active), No (inactive) is accepted.

Record excerpt, results attached:
CCCC1=C(OC)C(=O)c2c(C)cc(Cl)nc2C1=O	No
Cc1ccc(-c2n[nH]c(=O)n2/N=C\c2ccccc2)cc1	No
O=[N+]([O-])c1ccc2c3c1[C@H]1O[C@H]1c1cccc(c1-3)[C@@H]1O[C@H]21	Yes
CC/N=C(/C#N)NCC	No
Cc1c2c(ccc3ccccc32)c[n+]2ccccc12	No

Kindly review the next compound as well.
**Query** GET /call?item= O=C(O)C1CCC(=O)N1C(=O)C(Cl)c1ccccc1 (stereo unspecified) returns the recorded outcome of this test.
**Result** No

----------
// reported GI50 for each item listed
tested on: SNB-75; test: NCI tumour cell line growth inhibition, 48 h
Activity calls are given as the source filed them. No stated cut-off is given here; in the data, active = GI50 up to about 1.1 µM and inactive = higher.

C=C(C(N)=O)c1ccc([N+](=O)[O-])o1	9.46 µM (inactive)
CCCCCCCCCCCC(=O)CC(=O)c1c(O)cccc1O	19.4 µM (inactive)

**Query** Fill in: GI50 of NC(CCCCO)C(=O)O (stereo unspecified) is ___
**Result** > 100 µM (inactive)

**Query** Param item = `CO[C@H]1O[C@@H]2CO[C@@H](c3ccccc3)O[C@H]2[C@@H]2CC=CCC[C@]12O` ; retrieve measured GI50.
**Result** > 100 µM (inactive)

**Query** Requested field: GI50. Item: O=C(O)c1ccccc1CN1CCCC(C(=O)O)C1 (stereo unspecified)
**Result** > 100 µM (inactive)

**Query** # input molecule: COC(=O)C1=C(C(=O)OC)C23CC1C1C(C(=O)OC)=C(C(=O)OC)C12C1C=CC3C2C(=O)OC(=O)C21 (stereo unspecified) ; wanted: its GI50
**Result** 7.1 µM (inactive)

**Query** What GI50 value was documented for this molecule, `CCOC(=O)c1nc2cc(F)c(F)cc2nc1NCc1cc(OC)c(OC)c(OC)c1` ?
**Result** 16.5 µM (inactive)

**Query** If you can, please state the reported GI50 value of `Cc1cc2c(O)nc(N)nc2nc1C` .
**Result** > 100 µM (inactive)

**Query** Recorded GI50 for CC(NC(=O)/C(=C/c1ccccc1)NC(=O)c1ccccc1)C(=O)O (stereo unspecified) , please?
**Result** 24.1 µM (inactive)

**Query** Could you tell me which GI50 is on file for `C/C(=N\NC(=S)NC1CCCC1)c1ccccn1` ?
**Result** 2.25 µM (inactive)

**Query** Recorded GI50 for `O=C1c2ccccc2C(=O)c2c(NC(=O)c3ccc4c5c(ncnc35)-c3ccccc3C4=O)cccc21` , please?
**Result** 18.7 µM (inactive)

----------
system: U-251; experiment: NCI tumour cell line growth inhibition, 48 h
Active and inactive are the calls of the source. Cut-off read from the data, not from the text of the source: active = GI50 up to about 1.1 µM and inactive = higher.
measurement-type: GI50

COC1CCC(OS(C)(=O)=O)C(C)O1 (stereo not given)	> 10 µM (inactive)
COc1cc2[nH]c(=O)c3cc(C)cc4c(Cl)nc(c1OC)c2c43	38.6 µM (inactive)
COC(=O)C1=C(O)C(C(=O)OC)[C@]2(O)[C@H](C(=O)OC)[C@H]1C[C@@H](c1ccc([N+](=O)[O-])cc1)[C@H]2C(=O)OC (stereo not given in full)	11.5 µM (inactive)

**Query** Please report the recorded GI50 for `CC(/C=N/N=C1NCCCCN1)=N\N=C1NCCCCN1` .
**Result** > 100 µM (inactive)

**Query** I am curious: what GI50 value has been reported for `CCOC(=O)C(=O)/C(=C/NC(=S)c1ccncc1)C(=O)OCC` ?
**Result** > 100 µM (inactive)

**Query** Look up GI50 for this compound: CC(SC(=S)Nc1cccc(F)c1)C(=O)O (stereo not given)
**Result** 28.9 µM (inactive)

----------
system: SF-268; experiment: NCI tumour cell line growth inhibition, 48 h
Activity calls are given as the source filed them. Cut-off read from the data, not from the text of the source: active = GI50 up to about 1.1 µM and inactive = higher.
measurement-type: GI50

CC(C)(C)[Si](C)(C)OCCC1CC2(S(=O)(=O)C3=CC=C=C=C3)ON1CC2S(=O)(=O)c1ccccc1 (stereo not given)	> 10 µM (inactive)
CCCC(=O)Nc1cn(COC)c(C(=O)N2C[C@@H]3C[C@]34C2=CC(=O)c2[nH]cc(C)c24)n1	5.31 µM (inactive)
O=C(/C=C/c1ccccc1)CC(=O)CCC(=O)Nc1ccc(Cl)cc1	60.3 µM (inactive)
O=C(O)c1ccccc1CC1Cc2cc3c(cc2C1)CCC3	> 100 µM (inactive)

Note: attention shifts to another entry.
**Query** Which measured GI50 value corresponds to `OCCN(CCO)c1ccc2c(C(F)(F)F)cc(C(F)(F)F)nc2n1` ?
**Result** > 100 µM (inactive)

----------
tested on: SK-MEL-28; experiment: NCI tumour cell line growth inhibition, 48 h
Activity calls are given as the source filed them. Rule as the data show it: active = GI50 up to about 1.1 µM and inactive = higher.
measurement-type: GI50

CC[C@@]1(O)C(=O)OCc2c1cc1n(c2=O)Cc2c-1nc1ccccc1c2/C=N\NC(=O)C1CCCN1 (some centres undefined)	6.58 µM (inactive)
COC(=O)C1=C(O)C(C(=O)OC)[C@]2(O)[C@H](C(=O)OC)[C@H]1C[C@@H](c1ccc([N+](=O)[O-])cc1)[C@H]2C(=O)OC (some centres undefined)	16.2 µM (inactive)
COCOc1cc(OC)c(Br)cc1C/C(=N/O)C(=O)OC	> 100 µM (inactive)
O=C(O)CCc1c2ccc(=O)c(O)c-2oc2c(O)c(O)ccc12	> 100 µM (inactive)
CN(/N=C/C=N/N(C)C1=NCCN1)C1=NCCN1	> 100 µM (inactive)
O=C1CCC2=C(CCC2)N1CCc1ccc2c(c1)OCO2	> 100 µM (inactive)

**Query** Given C/C=C/C(C#N)(Cc1ccccc1)OP1(=O)OC(c2ccccc2)C(C)N1C (centres undefined) , state its recorded GI50.
**Result** > 100 µM (inactive)

**Query** Report GI50 for COC(=O)C1=C(C(=O)Nc2cccnc2Cl)N(c2ccc(OC)cc2[N+](=O)[O-])C(c2ccc(C)cc2)=CC1c1ccc(OC)cc1OC (centres undefined) please.
**Result** 59.6 µM (inactive)

**Query** Quick one: GI50 for `O=C(O)[C@H]1[C@@H](C2CCCCC2)O[C@@H](C2CCCCC2)O[C@H]1C(F)(F)F` ?
**Result** 19.4 µM (inactive)
